assay: aqueous stability in buffers of different pH at 60 °C, HPLC; type: physicochemical; settings: aqueous buffer; pH 1.0, 60 °C; read-out: t½
Assay Endpoint: half-life at 0.5 mM (h)
Kindly answer with a numeric value in h, unit omitted.

What measured half-life at 0.5 mM goes with Cc1cn2c(nc1=O)OC[C@H]1O[C@@H]2C[C@@H]1N=[N+]=[N-] ? 2.13

====

Here the recorded half-life at 0.5 mM is given for each entry.
test: aqueous stability in buffers of different pH at 60 °C, HPLC; type: physicochemical; conditions: aqueous buffer; pH 7.4, 60 °C; read-out: t½

[[record]]
smiles_string = "Cc1ccc(S(=O)(=O)OC[C@H]2O[C@@H](n3cc(C)c(=O)[nH]c3=O)C[C@@H]2N=[N+]=[N-])cc1"
assay_endpoint = "half-life at 0.5 mM"
recorded_result = "12.1 h"


Let us examine a further case.
Quick one: half-life at 0.5 mM of Cc1cn2c(nc1=O)OC[C@H]1O[C@@H]2C[C@@H]1N=[N+]=[N-] ? 79.2 h

====

experiment: pKa determination by differential scanning potentiometry (DSP); type: physicochemical; settings: pKa, NH group of the pyrimidinic base, experimental value
Assay Endpoint: pKa
// keep it numeric: no unit symbol after the value

For the compound shown here, Cc1cn([C@H]2C[C@H](O)[C@@H](CO)O2)c(=O)[nH]c1=O [Thymidine, reference compound] , give the reported pKa. 9.45

====

Test: aqueous stability in buffers of different pH at 60 °C, HPLC
Format: physicochemical
Details: aqueous buffer; pH 13.2, 60 °C; read-out: t½
Method: Table 2 lists the pH media, experimental rate constants (kobs, when it could be determined) and their corresponding half-life times (t½). […] Samples were analyzed using an HPLC system Agilent® 1100 equipped with Phenomenex® column: Hypersil ODS 5 μ particle diameter (4.6 × 250 mm). […]
Assay Endpoint: half-life at 0.5 mM (h)
Hi! Could you send only the number? It should be in h, unit omitted.

Some molecules with recorded half-life at 0.5 mM:
[[record]]
molecule = "Cc1cn([C@H]2C[C@H](N=[N+]=[N-])[C@@H](COC(=O)NCCN3CCNCC3)O2)c(=O)[nH]c1=O [compound 6]"
assay_endpoint = "half-life at 0.5 mM"
recorded_result = 6.48

[[record]]
molecule = "Cc1cn([C@H]2C[C@H](N=[N+]=[N-])[C@@H](COC(=O)N3CCNCC3)O2)c(=O)[nH]c1=O [compound 5]"
assay_endpoint = "half-life at 0.5 mM"
recorded_result = 3.97

[[record]]
molecule = "Cc1ccc(S(=O)(=O)OC[C@H]2O[C@@H](n3cc(C)c(=O)[nH]c3=O)C[C@@H]2N=[N+]=[N-])cc1 [compound 2]"
assay_endpoint = "half-life at 0.5 mM"
recorded_result = 0.765


# ---- query molecule ----
I have this molecule here, Cc1cn([C@H]2C[C@H](N=[N+]=[N-])[C@@H](COC(=O)N3CCCCC3)O2)c(=O)[nH]c1=O [compound 4] , and I need its recorded half-life at 0.5 mM. 11.2

====

assay: pKa determination by differential scanning potentiometry (DSP); assay type: physicochemical; settings: DSP, DMSO 2.5 % cosolvent, 25 °C, calculated from area with eq. 2; read-out: pKa, NH group of the pyrimidinic base, experimental value
Assay Endpoint: pKa

Can you look up the measured pKa of Cc1cn([C@H]2C[C@H](N=[N+]=[N-])[C@@H](CO)O2)c(=O)[nH]c1=O [compound 1, 3′-Azido-3′-deoxythymidine, reference compound] for me? 9.42

====

experiment: Differential Scanning Calorimetry (DSC) and Thermogravimetry (TG); type: physicochemical; conditions: accompanied by weight loss in TG; nitrogen atmosphere, 25–300 °C
Assay Endpoint: DSC exothermic decomposition peak

Worked cases, answers included:
[[record]]
smiles_string = "Cc1cn([C@H]2C[C@H](N=[N+]=[N-])[C@@H](COC(=O)NCCN3CCNCC3)O2)c(=O)[nH]c1=O"
recorded_result = "above 150 °C"

[[record]]
smiles_string = "Cc1cn([C@H]2C[C@H](N=[N+]=[N-])[C@@H](COC(=O)N3CCCCC3)O2)c(=O)[nH]c1=O"
recorded_result = "above 150 °C"

[[record]]
smiles_string = "Cc1ccc(S(=O)(=O)OC[C@H]2O[C@@H](n3cc(C)c(=O)[nH]c3=O)C[C@@H]2N=[N+]=[N-])cc1"
recorded_result = "above 150 °C"

[[record]]
smiles_string = "Cc1cn([C@H]2C[C@H](N=[N+]=[N-])[C@@H](COC(=O)N3CCNCC3)O2)c(=O)[nH]c1=O"
recorded_result = "above 150 °C"


// next entry
Give its DSC exothermic decomposition peak value. Item: Cc1cn2c(nc1=O)OC[C@H]1O[C@@H]2C[C@@H]1N=[N+]=[N-] 215 °C

Hey, just so you know, these numbers are from paper PMC3163364.
